experiment description: The drug is tested on the gut metagenome community of A-05 with ENA study accession number: PRJEB31790 for biotransformation under microaerobic condition. The drug concentrations were measured over 7 timepoints collected between 0 and 12 hours of incubation by liquid-chromatography-coupled mass spectrometry (LC–MS)
Assay type: ADME
Parameters: dose 5 uM, timepoint 0, 0.75, 1.5, 3, 6, 9, 12 hours
condition summary: 5 µM
measure: Bacterial Biotransformation

molecule: CCOC(=O)C1=C(COCCN)NC(C)=C(C(=O)OC)C1c1ccccc1Cl (centres undefined) [AMLODIPINE]
Bacterial Biotransformation: Compound NOT metabolized
--
molecule: COc1c(C)c2c(c(O)c1C/C=C(\C)CCC(=O)OCCN1CCOCC1)C(=O)OC2 [MYCOPHENOLATE MOFETIL]
Bacterial Biotransformation: Compound metabolized
--
molecule: C[C@]12C=CC(=O)C=C1CC[C@@H]1[C@@H]2[C@@H](O)C[C@@]2(C)[C@H]1CC[C@]2(O)C(=O)CO [PREDNISOLONE]
Bacterial Biotransformation: Compound metabolized
--
molecule: CO[C@H]1C[C@@H]2CC[C@@H](C)[C@@](O)(O2)C(=O)C(=O)N2CCCC[C@H]2C(=O)O[C@H]([C@H](C)C[C@@H]2CC[C@@H](OCCO)[C@H](OC)C2)CC(=O)[C@H](C)/C=C(\C)[C@@H](O)[C@@H](OC)C(=O)[C@H](C)C[C@H](C)/C=C/C=C/C=C/1C [EVEROLIMUS]
Bacterial Biotransformation: Compound metabolized
--
molecule: C[C@@H]1C[C@H]2[C@@H]3CCC4=CC(=O)C=C[C@]4(C)[C@@]3(F)[C@@H](O)C[C@]2(C)[C@@]1(O)C(=O)CO [DEXAMETHASONE]
Bacterial Biotransformation: Compound NOT metabolized

Measured Bacterial Biotransformation, CC(C)NCC(O)COc1ccc(CC(N)=O)cc1 (centres undefined) [ATENOLOL] : Compound NOT metabolized

Measured Bacterial Biotransformation, CNC(=C[N+](=O)[O-])NCCSCc1ccc(CN(C)C)o1 [RANITIDINE] : Compound NOT metabolized

Measured Bacterial Biotransformation, CO[C@H]1C[C@@H]2CC[C@@H](C)[C@@](O)(O2)C(=O)C(=O)N2CCCC[C@H]2C(=O)O[C@H]([C@H](C)C[C@@H]2CC[C@@H](O)[C@H](OC)C2)CC(=O)[C@H](C)/C=C(\C)[C@@H](O)[C@@H](OC)C(=O)[C@H](C)C[C@H](C)/C=C/C=C/C=C/1C [SIROLIMUS] : Compound metabolized

Measured Bacterial Biotransformation, C[C@H]1C[C@H]2[C@@H]3CCC4=CC(=O)C=C[C@]4(C)[C@@]3(F)[C@@H](O)C[C@]2(C)[C@@]1(O)C(=O)CO [BETAMETHASONE] : Compound NOT metabolized

Measured Bacterial Biotransformation, `CCOC(=O)[C@H](CCc1ccccc1)N[C@@H](C)C(=O)N1[C@H](C(=O)O)C[C@@H]2CCC[C@@H]21` : Compound NOT metabolized

Measured Bacterial Biotransformation, CCCC1O[C@@H]2C[C@H]3[C@@H]4CCC5=CC(=O)C=C[C@]5(C)[C@H]4[C@@H](O)C[C@]3(C)[C@]2(C(=O)CO)O1 (some centres undefined) [BUDESONIDE] : Compound metabolized

Measured Bacterial Biotransformation, NS(=O)(=O)c1cc(C(=O)O)c(NCc2ccco2)cc1Cl [FUROSEMIDE] : Compound NOT metabolized

Recorded values, source ChEMBL document CHEMBL5724806.
